System: TNNI3K
condition.info: concentration: 1 μM, replicates: in singlicate; n = 1;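 further: KINOMEscan kinase panel screen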
Label Not met if %Inh falls below 9%; label Met in every other case.

>>> print(df.to_string())
                                   molecule  assigned_label
0  CCCCc1nn2ncccc2c1-c1ccnc(Nc2ccc(N3CCN(C)CC3)cc2)n1             Met
1  Cl.Cl.NCC(NC(=O)c1cc(-c2ccccc2)c(-c2ccnc3[nH]ccc23)s1)c1ccccc1 (centres unmarked)             Met
2  Cc1ccc(F)c(C(=O)Nc2cccc(-c3nn4ccccc4c3-c3ccnc(Nc4cccc(F)c4)n3)c2)c1F             Met

Prompt line: Exam item: decide whether the reported %Inh for `CN(C)Cc1ccc(-c2ccc3c(Nc4ccc(Oc5ccccn5)cc4)ccnc3c2)o1` is at least 9%.
Response line: Not met

Prompt line: Exam item: decide whether the reported %Inh for `CCc1ccc(-c2ccc3c(c2)-c2c(cnn2C)S(=O)(=O)N3C)cc1` is at least 9%.
Response line: Not met

Prompt line: Exam item: decide whether the reported %Inh for `Cl.NC(=O)c1cccc(Nc2nccc(Nc3ccc(Oc4c(Cl)cccc4Cl)c(Cl)c3)n2)c1` is at least 9%.
Response line: Not met

Prompt line: Exam item: decide whether the reported %Inh for `Cn1cc(-c2[nH]c3cc(NC(=O)[C@H](N)C4CCCCC4)cc4c3c2C=NNC4=O)cn1` is at least 9%.
Response line: Met

----------
Test system: PAK1
condition.info: concentration: 1 μM, replicates: in singlicate; n = 1
Record form. Attribute: %Inh. Fill in for each entry.

>>> df
                         molecule  endpoint_label  value_measured
0  Oc1cc(Nc2ccnc3cc(I)ccc23)ccc1F            %Inh              0%

# map each molecule to its %Inh
1. Cc1cccc(Nc2nc(N[C@H]3CCNC3)ncc2C(N)=O)c1.Cl
2. O=C(Nc1n[nH]c2cc(-c3ccoc3)ccc12)C1CC1

Response line:
1: 38%; 2: 0%

# map each molecule to its %Inh
1. c1ccc(-c2n[nH]cc2Nc2ccnc3ccccc23)nc1
2. CC(C)c1nc(-c2cccc(NS(=O)(=O)c3c(F)cccc3F)c2F)c(-c2ccnc(Nc3ccc(N4CCOCC4)nc3)n2)s1
3. Cl.Cl.NCC(NC(=O)c1cc(-c2ccccc2)c(-c2ccnc3[nH]ccc23)s1)c1ccccc1 (stereo not drawn)
4. Nc1n[nH]c2cnc(-c3ccccc3)cc12
5. Fc1ccc(-c2ncn(C3CCNCC3)c2-c2ccnc(Oc3ccc(-c4ccccc4)cc3)n2)cc1
6. CC(C)(C)c1ccc2nccc(Nc3cccc(O)c3)c2c1

Response line:
1: 6%; 2: 27%; 3: 4%; 4: 21%; 5: 25%; 6: 0%

----------
Record form. Attribute: %Inh. Fill in for each entry.
Tested on: HPK1
condition.info: concentration: 1 μM, replicates: in singlicate; n = 1
Answers are plain numbers, in %.

Would you please look over these solved cases?
>>> df
                                   compound  test_target  units_symbol  value_measured
0  O=C(NC1CCN(c2ccnc(Nc3ccc(F)cc3)n2)C1)c1cc2ccccc2s1 (centres unmarked) [GSK1379716]         HPK1             %              54
1  COC(=O)Nc1nc2ccc(Oc3ccc(NC(=O)Nc4cc(C(F)(F)F)ccc4F)cc3)cc2n1C.Cl [GW692089]         HPK1             %               0
2  CN1CCN(Cc2cccc(-c3ccc4c(Nc5ccc(Oc6ccccc6)cc5)ccnc4c3)c2)CC1 [GW578342]         HPK1             %              25
3  CCS(=O)(=O)c1ccc(OC)c(Nc2nccc(-c3c(-c4cccc(NC(=O)c5c(F)cccc5F)c4)nn4ncccc34)n2)c1 [GSK326180]         HPK1             %              25
4  Cn1cc(-c2ccc3c(c2)CCN3C(=O)Cc2cccc(F)c2)c2c(N)ncnc21 [GSK2603358]         HPK1             %              57
5  CCn1c(-c2nonc2N)nc2c(C#CC(C)(C)O)nc(OC[C@H](N)c3ccccc3)cc21 [GSK943949]         HPK1             %              30
6  Nc1ncnc2c1nc(-c1ccccc1)n2-c1ccccc1 [SKF-97293]         HPK1             %              21

Now turn to the next compound.
Prompt line: Fill in the blank: the reported %Inh of C[C@@H]1CC[C@@H](C(=O)Nc2ccccc2)CN1c1cc(-c2ccc3c(N)n[nH]c3c2)nc(N)n1 [GSK2286062] is ____.
Response line: 36

----------
System: MELK
condition.info: concentration: 1 μM, replicates: in singlicate; n = 1
Please respond with true (1) when measured %Inh is strictly beneath 40%, and with false (0) in all other cases.

Field: example entries. Status: answers known.
>>> print(df.to_string())
                                   compound  assigned_label
0                  c1ccc(-c2cnc3nccnn23)cc1        true (1)
1  Cn1cc(-c2[nH]c3cc(NC(=O)[C@H](N)C4CCCCC4)cc4c3c2C=NNC4=O)cn1       false (0)
2  COc1cc(Nc2ncc3c(C)nc(-c4cc5ccccc5[nH]4)n3n2)cc(OC)c1OC       false (0)

Prompt line: %Inh under 40%? Item: Cl.Cl.NCC(NC(=O)c1cc(-c2ccccc2)c(-c2ccnc3[nH]ccc23)s1)c1ccccc1 (centres unmarked)
Response line: true (1)

Prompt line: %Inh under 40%? Item: Cl.Cl.NCC(C(=O)Nc1cc(Br)c(-c2ccnc3[nH]ccc23)s1)c1ccccc1 (centres unmarked)
Response line: false (0)

Prompt line: %Inh under 40%? Item: COc1cc(Nc2nccc(N3CCC(NC(=O)Nc4cccc(C(C)=O)c4)C3)n2)cc(OC)c1OC (centres unmarked)
Response line: true (1)

Prompt line: %Inh under 40%? Item: `Cc1cccc(Nc2nc(N[C@H]3CCNC3)ncc2C(N)=O)c1.Cl`
Response line: true (1)

Prompt line: %Inh under 40%? Item: `Cc1ccc(C(=O)Nc2ccc(Nc3ccnc4cc(-c5nccs5)ccc34)cc2O)cc1.Cl`
Response line: true (1)

----------
Tested on: CAMKK2
condition.info: concentration: 1 μM, replicates: in singlicate; n = 1
endpoint.label: %Inh (%)
One number for each entry, in %.

>>> print(df.to_string())
                                   compound  value_measured
0  COc1cccc(C(=O)Nc2cccc(Oc3ccc4nc(NC(=O)C5CC5)cn4n3)c2)c1               0
1  COc1cc(Nc2nccc(N3CCC(NC(=O)c4cc5ccccc5s4)C3)n2)cc(OC)c1OC (stereo not shown)               0
2  Cl.NC(=O)c1cccc(Nc2nccc(Nc3ccc(Oc4c(Cl)cccc4Cl)c(Cl)c3)n2)c1               0

Prompt line: Fill in the blank: the reported %Inh of `O=c1[nH]cc(-c2ccc(N3CCOCC3)cc2)c2sc(-c3cn[nH]c3)cc12` is ____.
Response line: 22

----------
Record form. Attribute: %Inh. Fill in for each entry.
Tested on: EPHB1
condition.info: concentration: 1 μM, replicates: in singlicate; n = 1
Answers are plain numbers, in %.

In [3]: df
Out[3]:
                                   molecule  test_target  units_symbol  value_measured
0  Cl.NC(=O)c1cccc(Nc2nccc(Nc3ccc(Oc4c(Cl)cccc4Cl)c(Cl)c3)n2)c1 [GW659009]        EPHB1             %            93.5
1  CSc1cccc2c(-c3ccncn3)c(-c3ccc(F)cc3)nn12 [GW514786]        EPHB1             %              15
2  O=C(Nc1cccc(Oc2ccc3nc(NC(=O)C4CC4)cn3n2)c1)c1ccccc1C(F)(F)F        EPHB1             %               6
3  Clc1ccc(-c2nn3ncccc3c2-c2ccnc(Nc3ccc4c(c3)OCCO4)n2)cc1 [GW829116]        EPHB1             %              18
4  CCn1c(-c2nonc2N)nc2c(C#CC(C)(C)O)ncc(OCCCCN)c21.O=C(O)C(F)(F)F.O=C(O)C(F)(F)F [GSK507274]        EPHB1             %               0

# map each molecule to its %Inh
1. Cl.Cl.NCC(C(=O)Nc1cc(Br)c(-c2ccnc3[nH]ccc23)s1)c1ccccc1 (centres unmarked) [GSK1269851]
2. CCS(=O)(=O)c1ccc(OC)c(Nc2nccc(-c3c(-c4cccc(NC(=O)c5c(F)cccc5F)c4)nn4ncccc34)n2)c1 [GSK326180]
3. CC(=O)Nc1nc2cnc(Nc3cc(NC(=O)c4cccc(C5(C#N)CC5)c4Cl)ccc3C)nc2s1

Response line:
[0, 15, 10]

All figures here come from paper PMC5540273.
